Test system: β-galactosidase in CMV-LacZ C2C12 myoblasts
Test: CMV-LacZ secondary screen in C2C12 myoblasts (β-Gal stabilizing assay)
Assay type: cell-based, mouse
Conditions: 0.5 uM; CMV-LacZ C2C12 myoblasts
Tag: T if measured CMV-LACZ in Myoblasts (β-galactosidase activity relative to DMSO) is not below 1, F if it is.

See these solved cases before continuing.
[[record]]
smilesrepresentation = "N#C/C(=C/c1ccc(N2CCOCC2)o1)C(=O)Nc1ccccc1"
categorylabel = "T"

[[record]]
smilesrepresentation = "Cn1cc(CN2CCC(C(=O)Nc3cccc(-c4cscn4)c3)CC2)cn1"
categorylabel = "T"

[[record]]
smilesrepresentation = "c1ccc(-c2cn3c4c(sc3n2)CCCC4)cc1"
categorylabel = "F"

[[record]]
smilesrepresentation = "Nc1cccc(/C=C/C(=O)O)c1"
categorylabel = "F"


Now look at this entry.
IN: Has COc1ccc(C(=O)Cn2nnc(-c3ccccc3NC(=O)c3ccco3)n2)cc1 a recorded CMV-LACZ in Myoblasts (β-galactosidase activity relative to DMSO) greater than or equal to 1?
OUT: T
